Listing of recorded GFP fluorescence (kMESF) by entry.
- ASSAY_REMARKS: LAP4-GFP expression modulation, dose response, SAR follow-up, cell-based, KU SAR set 2, flow cytometry (AID 504469)
- STUDY_CONDITIONS: S. cerevisiae LAP4-GFP strain, flow cytometry fluorescence, 3 h; at 100 µM (top of the series)
The source made the active and inactive calls.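 How the source made its calls: active means compounds whose fitted GFP dose response EC50 is at or below 33 microM; inactive means the rest.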
RECORDED_METRIC: GFP fluorescence (kMESF)

1. CNc1nc(NC)c([N+](=O)[O-])c(Nc2cccc(Cl)c2)n1 6.28 kMESF (inactive)
2. CNc1nc(N)c([N+](=O)[O-])c(Nc2cccc(Br)c2)n1 6.21 kMESF (inactive)
3. CNc1nc(NC2CCCCC2)c([N+](=O)[O-])c(N2CCOCC2)n1 6.42 kMESF (inactive)
4. CCNc1nc(N)c([N+](=O)[O-])c(Nc2cccc(Cl)c2)n1 6.21 kMESF (inactive)
5. CNc1nc(N)c([N+](=O)[O-])c(Nc2cccc(Oc3ccccc3)c2)n1 6.57 kMESF (inactive)
6. CNc1nc(N)c([N+](=O)[O-])c(Nc2cccc(OC)c2)n1 6.21 kMESF (inactive)
7. CNc1nc(N)c([N+](=O)[O-])c(Nc2ccccc2Br)n1 6.28 kMESF (inactive)
8. CNc1nc(N)c([N+](=O)[O-])c(Nc2ccccc2F)n1 6.21 kMESF (inactive)
9. CCNc1nc(NC2CCCCC2)c([N+](=O)[O-])c(N2CCOCC2)n1 6.5 kMESF (inactive)
